biological target: KRAS G12S (Homo sapiens (Human), UniProt P01116+P62937, G12S); assay: Ras-Raf (BRAF RBD) disruption / FRET / MOA assay, KRAS G12S; format: biochemical; conditions: Ras-Raf disruption/FRET/MOA assay; class symbols; read-out: KRAS G12S FRET data IC50
Sequence (P01116-2 other isoform, or with tags, fused parts or gaps G12S): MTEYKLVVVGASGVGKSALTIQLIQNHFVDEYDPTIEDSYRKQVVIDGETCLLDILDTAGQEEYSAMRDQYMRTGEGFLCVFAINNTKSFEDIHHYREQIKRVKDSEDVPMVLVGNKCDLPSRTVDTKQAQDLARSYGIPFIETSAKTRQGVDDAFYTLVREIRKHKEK
Sequence (P62937 whole entry): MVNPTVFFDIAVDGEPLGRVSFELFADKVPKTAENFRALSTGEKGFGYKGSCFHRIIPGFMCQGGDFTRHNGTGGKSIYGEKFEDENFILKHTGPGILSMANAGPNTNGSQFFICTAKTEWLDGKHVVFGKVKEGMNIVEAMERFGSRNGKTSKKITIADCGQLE
pIC50: −log10 of the molar value.
Below, each of the molecules is paired with its reported pIC50 value.

Take a look at these entries with their results.
molecule="C=CC(=O)N1CC[C@H](C(=O)N(C)[C@H](C(=O)N[C@H]2Cc3cc(sn3)-c3ccc4c(c3)c(c(-c3cccnc3[C@H](C)OC)n4CC)CC(C)(C)COC(=O)[C@@H]3CCCN(N3)C2=O)C(C)C)C1 (atropisomer, axis not shown) [Example A340]" observed_property=pIC50 reported_value="5.00 to 6.00"
molecule="C=CC(=O)N1C[C@H](C)[C@H](C(=O)N(C)[C@H](C(=O)N[C@H]2Cc3cc(O)cc(c3)-c3ccc4c(c3)c(c(-c3ccccc3CN(C)C)n4CC)CC(C)(C)COC(=O)[C@@H]3CCCN(N3)C2=O)C2CCCC2)C1 [Example A043]" observed_property=pIC50 reported_value="6.00 to 7.00"
molecule="CO[C@@H](COC1CN(C(=O)C#CC(C)(C)N(C)C)C1)C(=O)N[C@H]1Cc2coc(n2)-c2ccc3c(c2)c(c(-c2cccnc2[C@H](C)OC)n3CC(F)(F)F)CC(C)(C)COC(=O)[C@@H]2CCCN(N2)C1=O (atropisomer, axis not shown) [Example A579]" observed_property=pIC50 reported_value="5.00 to 6.00"

Now look at this entry.
State the recorded pIC50 for this entry: CO[C@@H](C)c1ncccc1-c1c2c3cc(ccc3n1CC(F)(F)F)-c1nc(co1)C[C@H](NC(=O)[C@H](C(C)C)N(C)C(=O)C1(F)CCN(C(=O)C#CC(C)(C)N(C)C)CC1)C(=O)N1CCC[C@H](N1)C(=O)OCC(C)(C)C2 (atropisomer, axis not shown) [Example A578]
6.00 to 7.00
